Source: patent US20210139545A1

A collection of binders and their measured pKd
# measured target: T1, E. coli alkaline phosphatase Strep-tag®II fusion protein (E. coli, UniProt P00634 22-471 = phosphatase)
# T1 construct: mature; also called BAP-StrepII; BAP-StrepIII
# T1 sequence (P00634 22-471): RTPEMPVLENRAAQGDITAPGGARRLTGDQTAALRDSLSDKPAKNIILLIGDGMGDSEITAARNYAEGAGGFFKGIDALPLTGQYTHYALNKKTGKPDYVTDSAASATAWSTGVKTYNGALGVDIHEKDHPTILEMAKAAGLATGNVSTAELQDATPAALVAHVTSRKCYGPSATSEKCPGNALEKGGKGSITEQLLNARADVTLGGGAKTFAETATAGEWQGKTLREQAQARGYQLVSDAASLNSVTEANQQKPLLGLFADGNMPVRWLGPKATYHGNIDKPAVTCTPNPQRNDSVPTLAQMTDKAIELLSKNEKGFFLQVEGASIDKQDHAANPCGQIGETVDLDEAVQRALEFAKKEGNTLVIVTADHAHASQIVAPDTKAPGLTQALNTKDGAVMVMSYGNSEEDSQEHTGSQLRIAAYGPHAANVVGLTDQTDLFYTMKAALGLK
# experiment description: ELISA, mutein coated, BAP-StrepII titrated
The meaning of pKd here: minus log10 of the concentration in molar units.

[[record]]
binder = "mutein“1”-m212 (designed binder, Library 6 clone on mutein “1”, 118 and 119 deleted) EAGITGTWYNQLGSTFIVTAGADGALTGTYVTARGNAESRYVLTGRYDSAPATDGSGTALGWTVAWKNNYRNAHSATTWSGQYVGGAEARINTQWLLTSGTTEHWLSTLVGHDTFTKVKPSAAS"
endpoint_result = 7.77


Consider the binder mutein m4001 (designed binder, Library 2 clone) EAGITGTWYNQLGSTFIVTAGADGALTGTYACGRGNAECRYVLTGRYDSAPATDGSGTALGWTVAWKNNYRNAHSATTWSGQYVGGAEARINTQWLLTSGTTEANAWKSTLVGHDTFTKVKPSAAS and give its recorded pKd. 7.70

Consider the binder mutein“1”-m302 (designed binder, Library 7 clone on mutein “1”, 118 and 119 deleted) EAGITGTWYNQLGSTFIVTAGADGALTGTYVTARGNAESRYVLTGRYDSAPATDGSGTALGWTVAWKNNYRNAHSATTWSGQYVGGAEARINTQWLLTSGTTEHWYSTLVGHDTFTKVKPSAAS and give its recorded pKd. 8.30
